Attribute: Kd
Target: FGFR1 (Homo sapiens)
Construct: made in house; host or cells: E. coli derived from BL21, infected with T7 phage
Assay: Kinase binding assay (kinase-tagged T7 phage, qPCR), Kd
Conditions: read-out: FGFR1 (Kd nM)

- Compound: "COCCOc1cc(C#N)cc(-c2n[nH]c3ccc(O[C@H](C)c4c(C)cnnc4C)cc23)c1"
  Kd: "100 to 250 nM"
- Compound: "Cc1ccc(C(=O)N2CCOc3ncc(-c4n[nH]c5ccc(O[C@H](C)c6c(Cl)cncc6Cl)cc45)cc32)cn1"
  Kd: "0.1 to 100 nM"
- Compound: "C[C@@H](Oc1ccc2[nH]nc(-c3cnc(OCC(C)(C)O)c(C#N)c3)c2c1)c1c(Cl)cncc1Cl"
  Kd: "0.1 to 100 nM"
- Compound: "C[C@@H](Oc1ccc2[nH]nc(-c3ccc(OC4C5CN(S(C)(=O)=O)CC54)nc3)c2c1)c1c(Cl)cncc1Cl (stereo partly drawn)"
  Kd: "0.1 to 100 nM"
- Compound: "COc1cc(OC)cc(-c2n[nH]c3ccc(O[C@H](C)c4c(C)cnnc4C)cc23)c1"
  Kd: "250 to 1000 nM"
- Compound: "COc1ncc(-c2n[nH]c3ccc(O[C@H](C)c4c(Cl)cncc4Cl)cc23)cc1NC(=O)N1CCOCC1"
  Kd: "> 1000 nM"
- Compound: "COc1cc(NC(=O)c2ccccn2)cc(-c2n[nH]c3ccc(O[C@H](C)c4c(Cl)cncc4Cl)cc23)c1"
  Kd: "250 to 1000 nM"
- Compound: "Cc1cnnc(C)c1[C@@H](C)Oc1ccc2[nH]nc(-c3cc(C#N)cc(N4CC5(CN(C)C5)C4)c3)c2c1"
  Kd: "> 1000 nM"
- Compound: "COc1ncc(-c2n[nH]c3ccc(O[C@H](C)c4c(Cl)cncc4Cl)cc23)cc1NC(=O)N1CCN(C)CC1"
  Kd: "> 1000 nM"
- Compound: "COc1cc2[nH]nc(-c3cnc(N(C)C)c(C#N)c3)c2cc1O[C@H](C)c1c(Cl)cncc1Cl"
  Kd: "0.1 to 100 nM"
- Compound: "Cc1cnnc(C)c1[C@@H](C)Oc1ccc2[nH]nc(-c3cc(C#N)cc(OC(F)(F)F)c3)c2c1"
  Kd: "> 1000 nM"
- Compound: "COc1cc2[nH]nc(-c3cc(C#N)cc(C4CC4)c3)c2cc1O[C@H](C)c1c(C)cnnc1C"
  Kd: "100 to 250 nM"
- Compound: "Cc1ncc(Cl)c([C@@H](C)Oc2ccc3[nH]nc(-c4ccc(O[C@@H]5CCOC5)nc4)c3c2)c1Cl"
  Kd: "0.1 to 100 nM"
- Compound: "Cc1cc2[nH]nc(-c3cnc(O[C@@H]4CCOC4)c(C#N)c3)c2cc1O[C@H](C)c1c(Cl)cncc1Cl"
  Kd: "0.1 to 100 nM"
- Compound: "C[C@@H](Oc1ccc2[nH]nc(-c3ccc(NC(=O)N4CCN(C)CC4)nc3)c2c1)c1c(Cl)cncc1Cl"
  Kd: "0.1 to 100 nM"

----------
Attribute: Kd
Target: FGFR1 (Homo sapiens, UniProt P11362)
Construct: made in house; host or cells: E. coli derived from BL21, infected with T7 phage
Sequence (P11362 22-822): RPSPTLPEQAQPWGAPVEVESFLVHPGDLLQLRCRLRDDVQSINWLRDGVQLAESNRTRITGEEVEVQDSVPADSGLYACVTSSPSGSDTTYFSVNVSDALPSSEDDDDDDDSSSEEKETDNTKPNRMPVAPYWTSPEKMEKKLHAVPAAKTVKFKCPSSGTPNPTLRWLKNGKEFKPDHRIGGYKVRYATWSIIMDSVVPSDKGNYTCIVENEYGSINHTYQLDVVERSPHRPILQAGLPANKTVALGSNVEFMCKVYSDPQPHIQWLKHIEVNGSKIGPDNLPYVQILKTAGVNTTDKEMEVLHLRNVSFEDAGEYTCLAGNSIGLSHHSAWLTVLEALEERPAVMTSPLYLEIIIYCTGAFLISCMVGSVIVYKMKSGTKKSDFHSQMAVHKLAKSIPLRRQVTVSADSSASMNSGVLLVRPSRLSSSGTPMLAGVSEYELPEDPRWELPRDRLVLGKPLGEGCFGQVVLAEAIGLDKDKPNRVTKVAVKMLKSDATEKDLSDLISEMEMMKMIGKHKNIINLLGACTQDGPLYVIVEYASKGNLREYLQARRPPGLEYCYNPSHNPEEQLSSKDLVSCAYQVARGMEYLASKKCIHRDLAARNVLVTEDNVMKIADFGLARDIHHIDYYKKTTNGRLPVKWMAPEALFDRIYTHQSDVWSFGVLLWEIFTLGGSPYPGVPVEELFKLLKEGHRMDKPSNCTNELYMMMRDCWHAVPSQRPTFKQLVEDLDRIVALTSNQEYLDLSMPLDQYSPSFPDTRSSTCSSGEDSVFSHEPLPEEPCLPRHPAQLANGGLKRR
Test: Kinase binding assay (kinase-tagged T7 phage, qPCR), Kd
Settings: read-out: FGFR1 (Kd nM)
Method: Kinase-tagged T7 phage strains were prepared in an E. coli host derived from the BL21 strain. E. coli were grown to log-phase and infected with T7 phage and incubated with shaking at 32° C. until lysis. […] Kds were determined using an 11-point 3-fold compound dilution series with three DMSO control points. […] The kinase concentration in the eluates was measured by qPCR. Binding constants were calculated with a standard dose-response curve using the Hill equation: […]

- Item Smiles: "COc1ncc(-c2n[nH]c3ccc(O[C@H](C)c4c(Cl)cncc4Cl)cc23)cc1NC(=O)c1cccc2cccnc12"
  Kd: "> 1000 nM"
- Item Smiles: "Cc1cc(-c2n[nH]c3ccc(O[C@H](C)c4c(Cl)cnc(C)c4Cl)cc23)cnc1O[C@H]1CCOC1"
  Kd: "250 to 1000 nM"
- Item Smiles: "C=CC(=O)N1CCOc2ncc(-c3n[nH]c4ccc(O[C@H](C)c5c(Cl)cncc5Cl)cc34)cc21"
  Kd: "> 1000 nM"
- Item Smiles: "Cc1ncccc1C(=O)N1CCOc2ncc(-c3n[nH]c4ccc(O[C@H](C)c5c(Cl)cncc5Cl)cc34)cc21"
  Kd: "> 1000 nM"

----------
Target: FGFR4 (Homo sapiens, UniProt P22455)
Construct: made in house; host or cells: E. coli derived from BL21, infected with T7 phage
Sequence (P22455 22-802): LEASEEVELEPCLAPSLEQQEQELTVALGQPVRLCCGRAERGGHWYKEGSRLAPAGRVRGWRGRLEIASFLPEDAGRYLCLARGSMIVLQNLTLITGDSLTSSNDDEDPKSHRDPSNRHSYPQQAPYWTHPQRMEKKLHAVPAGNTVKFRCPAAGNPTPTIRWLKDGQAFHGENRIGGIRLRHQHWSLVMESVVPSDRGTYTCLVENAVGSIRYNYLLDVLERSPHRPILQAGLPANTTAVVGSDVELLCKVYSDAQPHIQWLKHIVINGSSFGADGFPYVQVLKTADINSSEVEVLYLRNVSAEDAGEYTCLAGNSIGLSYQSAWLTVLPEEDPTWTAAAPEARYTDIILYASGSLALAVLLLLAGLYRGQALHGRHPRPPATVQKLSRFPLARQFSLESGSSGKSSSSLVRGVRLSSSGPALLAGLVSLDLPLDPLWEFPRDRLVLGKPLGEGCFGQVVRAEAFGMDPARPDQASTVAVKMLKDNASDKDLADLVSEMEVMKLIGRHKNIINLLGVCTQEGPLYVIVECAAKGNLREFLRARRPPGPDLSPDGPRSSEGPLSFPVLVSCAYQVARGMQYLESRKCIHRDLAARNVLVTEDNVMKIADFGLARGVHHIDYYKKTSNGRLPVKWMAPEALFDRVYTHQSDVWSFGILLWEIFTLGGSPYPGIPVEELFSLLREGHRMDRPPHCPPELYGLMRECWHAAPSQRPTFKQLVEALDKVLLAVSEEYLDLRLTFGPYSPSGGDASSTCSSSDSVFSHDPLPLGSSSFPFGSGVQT
Experiment: Kinase binding assay (kinase-tagged T7 phage, qPCR), Kd
Settings: read-out: FGFR4 (Kd nM)
Parameter: Kd

- Item Smiles: "Cc1cc(-c2n[nH]c3ccc(O[C@H](C)c4c(C)cnnc4C)cc23)cc(C#N)c1OC1CCN(C2COC2)CC1"
  Assay System: "FGFR4 (Homo sapiens, UniProt P22455)"
  Parameter: "Kd"
  Result: "0.1 to 100 nM"
- Item Smiles: "COc1cc(C#N)cc(-c2n[nH]c3ccc(O[C@@H](C)c4c(C)cnnc4C)cc23)c1"
  Assay System: "FGFR4 (Homo sapiens, UniProt P22455)"
  Parameter: "Kd"
  Result: "250 to 1000 nM"
- Item Smiles: "COc1cc(OC)cc(-c2n[nH]c3ccc(O[C@@H](C)c4c(C)cnnc4C)cc23)c1"
  Assay System: "FGFR4 (Homo sapiens, UniProt P22455)"
  Parameter: "Kd"
  Result: "0.1 to 100 nM"
- Item Smiles: "COc1cc(NC(=O)c2ccccn2)cc(-c2n[nH]c3ccc(O[C@H](C)c4c(Cl)cncc4Cl)cc23)c1"
  Assay System: "FGFR4 (Homo sapiens, UniProt P22455)"
  Parameter: "Kd"
  Result: "0.1 to 100 nM"
- Item Smiles: "Cc1cnnc(C)c1[C@@H](C)Oc1ccc2[nH]nc(-c3cc(C#N)cc(OCC4CC4)c3)c2c1"
  Assay System: "FGFR4 (Homo sapiens, UniProt P22455)"
  Parameter: "Kd"
  Result: "0.1 to 100 nM"
- Item Smiles: "Cc1cnnc(C)c1[C@@H](C)Oc1ccc2[nH]nc(-c3cc(C#N)cc(N4CCN(C)CC4)c3)c2c1"
  Assay System: "FGFR4 (Homo sapiens, UniProt P22455)"
  Parameter: "Kd"
  Result: "100 to 250 nM"
- Item Smiles: "C[C@@H](Oc1ccc2[nH]nc(-c3cnc(N[C@@H]4CCOC4)c(C#N)c3)c2c1)c1c(Cl)cncc1Cl"
  Assay System: "FGFR4 (Homo sapiens, UniProt P22455)"
  Parameter: "Kd"
  Result: "0.1 to 100 nM"

----------
Attribute: Kd
Molecular target: FGFR3 (Homo sapiens, UniProt P22607)
Construct: made in house; host or cells: E. coli derived from BL21, infected with T7 phage
Sequence (P22607 23-806): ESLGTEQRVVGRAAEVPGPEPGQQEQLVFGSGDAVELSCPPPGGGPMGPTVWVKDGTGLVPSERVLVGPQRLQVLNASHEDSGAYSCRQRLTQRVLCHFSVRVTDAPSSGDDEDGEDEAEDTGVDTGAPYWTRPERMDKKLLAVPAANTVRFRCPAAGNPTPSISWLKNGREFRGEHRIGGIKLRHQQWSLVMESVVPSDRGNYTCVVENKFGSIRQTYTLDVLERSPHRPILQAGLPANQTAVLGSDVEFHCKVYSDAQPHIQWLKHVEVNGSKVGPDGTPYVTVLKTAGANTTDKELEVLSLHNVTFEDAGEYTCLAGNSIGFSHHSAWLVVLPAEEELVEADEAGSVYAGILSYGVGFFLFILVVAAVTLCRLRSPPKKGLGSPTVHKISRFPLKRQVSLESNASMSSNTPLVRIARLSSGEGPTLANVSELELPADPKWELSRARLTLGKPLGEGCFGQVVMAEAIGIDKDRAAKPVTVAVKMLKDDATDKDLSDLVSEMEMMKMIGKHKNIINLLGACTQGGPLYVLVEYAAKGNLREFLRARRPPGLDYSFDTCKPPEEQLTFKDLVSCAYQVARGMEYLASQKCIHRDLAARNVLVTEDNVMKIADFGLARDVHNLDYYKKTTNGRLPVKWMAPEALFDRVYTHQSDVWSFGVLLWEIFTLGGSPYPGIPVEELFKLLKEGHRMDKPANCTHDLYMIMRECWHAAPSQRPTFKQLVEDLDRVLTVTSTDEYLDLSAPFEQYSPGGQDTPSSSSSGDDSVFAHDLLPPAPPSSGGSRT
Assay: Kinase binding assay (kinase-tagged T7 phage, qPCR), Kd
Conditions: read-out: FGFR3 (Kd nM)
Parameter: Kd

- Molecule: "COc1ncc(-c2n[nH]c3ccc(O[C@H](C)c4c(Cl)cncc4Cl)cc23)cc1NC(=O)c1ccccn1 [Example 2]"
  Assay System: "FGFR3 (Homo sapiens, UniProt P22607)"
  Parameter: "Kd"
  Result: "> 1000 nM"
- Molecule: "Cc1ncc(Cl)c([C@@H](C)Oc2ccc3[nH]nc(-c4ccc(N[C@H]5CCOC5)nc4)c3c2)c1Cl [Example 160]"
  Assay System: "FGFR3 (Homo sapiens, UniProt P22607)"
  Parameter: "Kd"
  Result: "0.1 to 100 nM"
- Molecule: "Cc1cc(C(=O)N2CCOc3ncc(-c4n[nH]c5ccc(O[C@H](C)c6c(Cl)cncc6Cl)cc45)cc32)ccn1 [Example 23]"
  Assay System: "FGFR3 (Homo sapiens, UniProt P22607)"
  Parameter: "Kd"
  Result: "250 to 1000 nM"
- Molecule: "CCN1CCC2(CC1)CC(O)c1cc(-c3n[nH]c4ccc(O[C@H](C)c5c(Cl)cncc5Cl)cc34)ccc1O2 (stereo partly drawn) [Example 103]"
  Assay System: "FGFR3 (Homo sapiens, UniProt P22607)"
  Parameter: "Kd"
  Result: "0.1 to 100 nM"
- Molecule: "Cc1cnnc(C)c1[C@@H](C)Oc1ccc2[nH]nc(-c3cc(C#N)cc(C#N)c3)c2c1 [Example 83]"
  Assay System: "FGFR3 (Homo sapiens, UniProt P22607)"
  Parameter: "Kd"
  Result: "250 to 1000 nM"
- Molecule: "CCN1CCC(Oc2ncc(-c3n[nH]c4ccc(O[C@H](C)c5c(Cl)cncc5Cl)cc34)cc2C#N)CC1 [Example 119]"
  Assay System: "FGFR3 (Homo sapiens, UniProt P22607)"
  Parameter: "Kd"
  Result: "0.1 to 100 nM"
- Molecule: "CCOc1cc(OC)cc(-c2n[nH]c3ccc(O[C@H](C)c4c(C)cnnc4C)cc23)c1 [Example 52]"
  Assay System: "FGFR3 (Homo sapiens, UniProt P22607)"
  Parameter: "Kd"
  Result: "100 to 250 nM"
- Molecule: "C[C@@H](Oc1ccc2[nH]nc(-c3cnc(N)c(OC(F)F)c3)c2c1)c1c(Cl)cncc1Cl [Example 28]"
  Assay System: "FGFR3 (Homo sapiens, UniProt P22607)"
  Parameter: "Kd"
  Result: "250 to 1000 nM"
- Molecule: "C[C@@H](Oc1ccc2[nH]nc(-c3ccc4c(c3)COC3(CCN(CC(F)(F)F)CC3)O4)c2c1)c1c(Cl)cncc1Cl [Example 169]"
  Assay System: "FGFR3 (Homo sapiens, UniProt P22607)"
  Parameter: "Kd"
  Result: "0.1 to 100 nM"
- Molecule: "COc1ncc(-c2n[nH]c3ccc(O[C@H](C)c4c(Cl)cncc4Cl)cc23)cc1NC(=O)CN(C)C [Example 15]"
  Assay System: "FGFR3 (Homo sapiens, UniProt P22607)"
  Parameter: "Kd"
  Result: "100 to 250 nM"
- Molecule: "CC(C)N1CCOc2ncc(-c3n[nH]c4ccc(O[C@H](C)c5c(Cl)cncc5Cl)cc34)cc21 [Example 141]"
  Assay System: "FGFR3 (Homo sapiens, UniProt P22607)"
  Parameter: "Kd"
  Result: "> 1000 nM"
- Molecule: "COc1cc(NC(=O)c2ccccn2)cc(-c2n[nH]c3ccc(O[C@H](C)c4c(Cl)cncc4Cl)cc23)c1 [Example 45]"
  Assay System: "FGFR3 (Homo sapiens, UniProt P22607)"
  Parameter: "Kd"
  Result: "0.1 to 100 nM"
- Molecule: "COc1cc(C#N)cc(-c2n[nH]c3ccc(O[C@H](C)c4c(C)cnnc4C)cc23)c1 [Example 53]"
  Assay System: "FGFR3 (Homo sapiens, UniProt P22607)"
  Parameter: "Kd"
  Result: "0.1 to 100 nM"
- Molecule: "C[C@@H](Oc1ccc2[nH]nc(-c3ccc4c(c3)COC3(CCN(CC(F)F)CC3)O4)c2c1)c1c(Cl)cncc1Cl [Example 168]"
  Assay System: "FGFR3 (Homo sapiens, UniProt P22607)"
  Parameter: "Kd"
  Result: "0.1 to 100 nM"
- Molecule: "COc1ncc(-c2n[nH]c3ccc(O[C@H](C)c4c(Cl)cncc4Cl)cc23)cc1NCc1ccccn1 [Example 4]"
  Assay System: "FGFR3 (Homo sapiens, UniProt P22607)"
  Parameter: "Kd"
  Result: "250 to 1000 nM"
